- SYSTEM_UNDER_TEST: UniProtKB P08235
- Sequence (P08235 734-984 limits assumed): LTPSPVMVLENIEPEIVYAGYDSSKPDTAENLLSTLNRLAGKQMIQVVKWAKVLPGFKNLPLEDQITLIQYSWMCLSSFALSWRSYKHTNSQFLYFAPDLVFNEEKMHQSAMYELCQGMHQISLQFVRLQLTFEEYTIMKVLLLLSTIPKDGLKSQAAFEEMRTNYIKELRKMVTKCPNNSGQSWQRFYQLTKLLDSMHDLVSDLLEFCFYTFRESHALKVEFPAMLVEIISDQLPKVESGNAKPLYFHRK
- METHOD_DESCRIPTION: Cellular in vitro assay to determine the inhibitory MR activity (GAL4-MR chimera luciferase reporter in CHO K1 cells)
- RECORDED_CONDITIONS: GAL4-MR ligand-binding domain chimera in CHO K1 cells, agonist aldosterone
MEASURED_PARAMETER: log10(IC50) (log10 of the value in nM)
Scale: log10; quantity: IC50; unit before log: nM

Q. log10(IC50) lookup needed for CCOC(=O)C1=C(C)NC(C)=C(C(=O)c2ccccc2)C1c1cccc2c(=O)cc(C)oc12 (stereo not shown) , thanks.
A. 2.02

Q. log10(IC50) lookup needed for CCOC(=O)C1=C(C)NC(C)=C(C(C)=O)C1c1ccc(F)c2c(=O)cc(C)oc12 (stereo not shown) , thanks.
A. 1.87

Q. log10(IC50) lookup needed for COC(=O)C1=C(C)NC(C)=C(C(=O)c2ccc(C)cc2)C1c1cccc2c(=O)cc(C)oc12 (stereo not shown) , thanks.
A. 1.43

Q. log10(IC50) lookup needed for COC(=O)C1=C(C)NC(C)=C(C(=O)CC2CCC2)C1c1cccc2c(=O)cc(C)oc12 (stereo not shown) , thanks.
A. 1.26

Q. log10(IC50) lookup needed for CCOC(=O)C1=C(C)NC(C)=C(C(C)=O)C1c1cccc2c(=O)cc(C)oc12 (racemic) [Example 1 (Racemate)] , thanks.
A. 1.88

Q. log10(IC50) lookup needed for COC(=O)C1=C(C)NC(C)=C(C(C)=O)C1c1cccc2c(=O)cc(C)oc12 (stereo not shown) , thanks.
A. 2.37

Q. log10(IC50) lookup needed for CC(=O)C1=C(C)NC(C)=C(C(=O)OC2CCCC2)C1c1cccc2c(=O)cc(C)oc12 (stereo not shown) , thanks.
A. 1.34

Q. log10(IC50) lookup needed for CCOC(=O)C1=C(C)NC(C)=C(C(C)=O)C1c1cccc2c(=O)cc(C)oc12 (single isomer, unassigned) [Example 1 (Enantiomer 2)] , thanks.
A. 1.63

Q. log10(IC50) lookup needed for CC(=O)C1=C(C)NC(C)=C(C(=O)OC(C)C)C1c1cccc2c(=O)cc(C)oc12 (stereo not shown) , thanks.
A. 1.59

Q. log10(IC50) lookup needed for CC1=C(C(=O)OC(C)C)C(c2cccc3c(=O)cc(C)oc23)C(C(=O)C(F)(F)F)=C(C)N1 (stereo not shown) , thanks.
A. 1.28
